# Test system: KARPAS-45 (T-Lymphoblastic Leukemia);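 note: after 72 h of two-drug dosing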
# Experimental details: Bliss excess, mean over the matrix (fraction); higher = more synergy
Respond with TRUE for Bliss excess values of 0.1 and above, FALSE for values below.

Molecule: COc1nnc2ccc(N3CCC(c4ccc(OCCN5CCN(C)C(=O)[C@H]5C)cc4)CC3)nn12 [AZD5153] + Cn1cnc2c(F)c(Nc3ccc(Br)cc3Cl)c(C(=O)NOCCO)cc21 [Selumetinib] (first compound max 1 µM, 7x7, partner max 10 µM)
Class label: FALSE
--
Molecule: COc1nnc2ccc(N3CCC(c4ccc(OCCN5CCN(C)C(=O)[C@H]5C)cc4)CC3)nn12 [AZD5153] + Cc1c2c(nn1C)CSCc1cc(n(C)n1)CSc1cc(c3ccccc3c1)OCCCc1c(C(=O)O)n(C)c3c-2c(Cl)ccc13 [AZD5991] (first compound max 1 µM, 7x7, partner max 1 µM)
Class label: FALSE
--
Molecule: Cc1c2c(nn1C)CSCc1cc(n(C)n1)CSc1cc(c3ccccc3c1)OCCCc1c(C(=O)O)n(C)c3c-2c(Cl)ccc13 [AZD5991] + C[C@@H](Nc1cc(F)cc(F)c1)c1cc(C(=O)N(C)C)cc2c(=O)cc(N3CCOCC3)oc12 [AZD8186] (first compound max 1 µM, 7x7, partner max 3 µM)
Class label: FALSE
--
Molecule: Cc1c2c(nn1C)CSCc1cc(n(C)n1)CSc1cc(c3ccccc3c1)OCCCc1c(C(=O)O)n(C)c3c-2c(Cl)ccc13 [AZD5991] + CC1(C)CCC(CN2CCN(c3ccc(C(=O)NS(=O)(=O)c4ccc(NCC5CCOCC5)c([N+](=O)[O-])c4)c(Oc4cnc5[nH]ccc5c4)c3)CC2)=C(c2ccc(Cl)cc2)C1 [Venetoclax] (first compound max 1 µM, 7x7, partner max 1 µM)
Class label: TRUE
--
Molecule: CC1(C)CCC(CN2CCN(c3ccc(C(=O)NS(=O)(=O)c4ccc(NCC5CCOCC5)c([N+](=O)[O-])c4)c(Oc4cnc5[nH]ccc5c4)c3)CC2)=C(c2ccc(Cl)cc2)C1 [Venetoclax] + C[C@@H](Nc1cc(F)cc(F)c1)c1cc(C(=O)N(C)C)cc2c(=O)cc(N3CCOCC3)oc12 [AZD8186] (first compound max 1 µM, 7x7, partner max 3 µM)
Class label: TRUE
--
Molecule: CN(CCO)CC[C@H](CSc1ccccc1)Nc1ccc(S(=O)(=O)NC(=O)c2ccc(N3CCC([C@@H](O)c4ccccc4-c4ccc(Cl)cc4)CC3)cc2)cc1S(=O)(=O)C(F)(F)F [AZD4320] + Cc1cc2ncnn2cc1Nc1ncc2c(n1)n(C1CCOCC1)c(=O)n2C [AZD7648] (first compound max 1 µM, 7x7, partner max 10 µM)
Class label: FALSE

====

# System: ES8 (Ewing's Sarcoma)
# Experimental details: combination Emax (second highest fraction inhibited in the dose matrix, 72 h); higher = more inhibition; extreme values may be limits of the assay
Value kind: combination Emax

Molecule: C[C@@H](c1ccc2nccn2c1)n1nnc2ncc(-c3cnn(C)c3)nc21 [Savolitinib] + CC1(C)CCC(CN2CCN(c3ccc(C(=O)NS(=O)(=O)c4ccc(NCC5CCOCC5)c([N+](=O)[O-])c4)c(Oc4cnc5[nH]ccc5c4)c3)CC2)=C(c2ccc(Cl)cc2)C1 [Venetoclax] (first compound max 1 µM, 7x7, partner max 1 µM)
Numeric readout: 0.259

Molecule: CN(CCO)CC[C@H](CSc1ccccc1)Nc1ccc(S(=O)(=O)NC(=O)c2ccc(N3CCC([C@@H](O)c4ccccc4-c4ccc(Cl)cc4)CC3)cc2)cc1S(=O)(=O)C(F)(F)F [AZD4320] + CN(C)CCCOc1ccc(-c2ccc3ncc4c(c3c2)n(C2CCOCC2)c(=O)n4C)cn1 [AZD0156] (first compound max 1 µM, 7x7, partner max 1 µM)
Numeric readout: 0.64

Molecule: Cc1c2c(nn1C)CSCc1cc(n(C)n1)CSc1cc(c3ccccc3c1)OCCCc1c(C(=O)O)n(C)c3c-2c(Cl)ccc13 [AZD5991] + C[C@@H](Nc1cc(F)cc(F)c1)c1cc(C(=O)N(C)C)cc2c(=O)cc(N3CCOCC3)oc12 [AZD8186] (first compound max 1 µM, 7x7, partner max 3 µM)
Numeric readout: 0.613

Molecule: Cc1c2c(nn1C)CSCc1cc(n(C)n1)CSc1cc(c3ccccc3c1)OCCCc1c(C(=O)O)n(C)c3c-2c(Cl)ccc13 [AZD5991] + Cn1cnc2c(F)c(Nc3ccc(Br)cc3Cl)c(C(=O)NOCCO)cc21 [Selumetinib] (first compound max 1 µM, 7x7, partner max 3 µM)
Numeric readout: 0.521

Molecule: N#Cc1cnc(Nc2cc(NC[C@H]3CNCCO3)c(C(F)(F)F)cn2)cn1 [SRA737] + O=c1[nH]cc(F)c(=O)[nH]1 [5-Fluorouracil] (first compound max 10 µM, 7x7, partner max 20 µM)
Numeric readout: 0.611

Molecule: Cc1c2c(nn1C)CSCc1cc(n(C)n1)CSc1cc(c3ccccc3c1)OCCCc1c(C(=O)O)n(C)c3c-2c(Cl)ccc13 [AZD5991] + CC(=O)O[C@H]1C(=O)[C@@]2(C)[C@H]([C@H](OC(=O)c3ccccc3)[C@]3(O)C[C@H](OC(=O)[C@H](O)[C@@H](NC(=O)c4ccccc4)c4ccccc4)C(C)=C1C3(C)C)[C@]1(OC(C)=O)CO[C@@H]1C[C@@H]2O [Paclitaxel] (first compound max 1 µM, 7x7, partner max 3 µM)
Numeric readout: 1
